Test details: TD-6450 phase I clinical study (SAD/MAD): pharmacokinetics
Format: in vivo, human
Study conditions: female, human, plasma, oral, 30 mg, Female subjects, SAD arm NCT02022306, Dose 30.00, 4 Hours; read-out: Concentration
Reported endpoint: concentration at 4 h (ng/mL)
Just the number in ng/mL, nothing appended.

Note concentration at 4 h for the molecule shown: CNC(=O)N1C[C@@H](C)N(c2ccc(C(=O)Nc3ccc(-c4ccc(-c5c[nH]c([C@@H]6CCCN6C(=O)[C@@H](NC(=O)OC)C(C)C)n5)cc4)c(OC(F)(F)F)c3)cn2)C[C@@H]1C
40.6

* * *

Test details: Hit scoring on safety in human subjects and pharmacokinetics
Reported endpoint: Score (safety)
Format: numeric value only, no unit, no commentary.

Worked cases, answers included:
| Compound | Score (safety) |
| --- | --- |
| Cc1cc(Nc2ncc(Cl)c(Nc3ccccc3S(=O)(=O)C(C)C)n2)c(OC(C)C)cc1C1CCNCC1 | 0 |
| C[C@H]1Cc2c([nH]c3cc(Cl)c(F)cc23)[C@@]2(N1)C(=O)Nc1ccc(Cl)cc12 | 3 |

Note Score (safety) for the compound shown: CC(C)(C)NCc1ccc(Nc2ccnc3cc(Cl)ccc23)cc1O
0

Note Score (safety) for the compound shown: CS(=O)(=O)c1ccc(-c2cnc(N)c(-c3ccc(C(F)(F)F)nc3)c2)cc1
3

Note Score (safety) for the compound shown: CC(C)NC(=N)NC(=N)Nc1ccc(Cl)c(Cl)c1.Cl [Chlorproguanil hydrochloride]
0

Note Score (safety) for the compound shown: N=C(N)c1ccc(C=C2c3ccccc3-c3ccccc32)cc1
0

Note Score (safety) for the compound shown: CC(O)C(=O)O.Cc1[nH]c2ccccc2c1CCNCc1ccc(/C=C/C(=O)NO)cc1 [Panobinostat lactate]
0

Note Score (safety) for the compound shown: CC(C)[C@H](C(=O)Nc1ccc(C(=O)NO)cc1)c1ccccc1
0
